Ref: ChEMBL document CHEMBL2169839

Molecular target: Aldo-keto reductase family 1 member C3 (Homo sapiens)
Assay: Inhibition of AKR1C3 overexpressed in human HCT116 cells assessed as inhibition of PR-104A conversion to hydroxylamine after 2 hrs by LC-MS/MS analysis
pIC50: −log10 of the molar value.
Listed next: entries and their corresponding pIC50.
Reported Property: pIC50

>  <Compound>
O=C1CCCN1c1ccc(S(=O)(=O)N2CCc3ccccc3C2)cc1

>  <Qualifying Sign>
=

>  <Result Value>
7.62

$$$$
>  <Compound>
O=C(O)c1ccc(S(=O)(=O)N2CCc3ccccc3C2)cc1

>  <Qualifying Sign>
<

>  <Result Value>
6.00

$$$$
>  <Compound>
O=C(O)c1cccc(S(=O)(=O)N2CCc3c(O)cccc3C2)c1

>  <Qualifying Sign>
=

>  <Result Value>
6.34

$$$$
>  <Compound>
O=C(O)c1cccc(S(=O)(=O)N2CCc3ccc(I)cc3C2)c1

>  <Qualifying Sign>
=

>  <Result Value>
7.35

$$$$
>  <Compound>
O=C(c1cccc(S(=O)(=O)N2CCc3ccccc3C2)c1)N1CCOCC1

>  <Qualifying Sign>
=

>  <Result Value>
7.89

$$$$
>  <Compound>
O=C(O)c1cccc(S(=O)(=O)N2Cc3ccccc3C2)c1

>  <Qualifying Sign>
=

>  <Result Value>
6.05

$$$$
>  <Compound>
O=C(O)c1cccc(S(=O)(=O)N2CCc3ccccc3C2)c1

>  <Qualifying Sign>
=

>  <Result Value>
7.57

$$$$
>  <Compound>
CC1Cc2ccccc2CN1S(=O)(=O)c1cccc(C(=O)O)c1 (stereo not drawn)

>  <Qualifying Sign>
=

>  <Result Value>
6.75

$$$$
>  <Compound>
O=C(O)c1cccc(S(=O)(=O)N2CCc3cc(O)ccc3C2)c1

>  <Qualifying Sign>
<

>  <Result Value>
6.00

$$$$
>  <Compound>
CNC(=O)c1cccc(S(=O)(=O)N2CCc3ccccc3C2)c1

>  <Qualifying Sign>
=

>  <Result Value>
7.89

$$$$
>  <Compound>
O=C(O)c1cccc(S(=O)(=O)N2CCc3ccc(F)cc3C2)c1

>  <Qualifying Sign>
=

>  <Result Value>
7.62

$$$$
>  <Compound>
O=C(O)c1cccc(S(=O)(=O)N2CCc3sccc3C2)c1

>  <Qualifying Sign>
=

>  <Result Value>
7.47

$$$$
>  <Compound>
Cc1ccc2c(c1)CN(S(=O)(=O)c1cccc(C(=O)O)c1)CC2

>  <Qualifying Sign>
=

>  <Result Value>
7.54

$$$$
>  <Compound>
COc1cccc2c1CCN(S(=O)(=O)c1cccc(C(=O)O)c1)C2

>  <Qualifying Sign>
=

>  <Result Value>
7.41

$$$$
>  <Compound>
O=C(O)c1cccc(S(=O)(=O)N2CCc3c(Br)cccc3C2)c1

>  <Qualifying Sign>
=

>  <Result Value>
7.85

$$$$
>  <Compound>
O=C(O)c1cccc(S(=O)(=O)N2CCc3cc(Cl)ccc3C2)c1

>  <Qualifying Sign>
=

>  <Result Value>
7.41

$$$$
>  <Compound>
O=C(O)[C@@H]1CCCN(S(=O)(=O)c2ccc3ccccc3c2)C1

>  <Qualifying Sign>
<

>  <Result Value>
6.00

$$$$
>  <Compound>
CN(C)C(=O)c1cccc(S(=O)(=O)N2CCc3ccccc3C2)c1

>  <Qualifying Sign>
=

>  <Result Value>
7.85

$$$$
>  <Compound>
O=C(O)c1cccc(S(=O)(=O)N2CCc3c(cccc3[N+](=O)[O-])C2)c1

>  <Qualifying Sign>
=

>  <Result Value>
7.54

$$$$
>  <Compound>
O=C(O)C(=O)Nc1cccc(S(=O)(=O)N2CCc3ccccc3C2)c1

>  <Qualifying Sign>
<

>  <Result Value>
6.00

$$$$
>  <Compound>
O=S(=O)(c1cccc(-c2nnn[nH]2)c1)N1CCc2ccccc2C1

>  <Qualifying Sign>
=

>  <Result Value>
6.05

$$$$
>  <Compound>
O=C(O)c1cccc(S(=O)(=O)N2CCc3cc([N+](=O)[O-])ccc3C2)c1

>  <Qualifying Sign>
<

>  <Result Value>
6.00

$$$$
>  <Compound>
O=C(O)c1cccc(S(=O)(=O)N2CCCc3ccccc32)c1

>  <Qualifying Sign>
<

>  <Result Value>
6.00

$$$$

* * *

Target: Aldo-keto reductase family 1 member C3 (Homo sapiens)
Assay: biochemical
Description: Inhibition of human recombinant N-terminal His6-tagged AKR1C3 expressed in Escherichia coli BL21(DE3) cells using 8-Acetyl-2,3,5,6-tetrahydro-1H,4H-11-oxa-3a-aza-benzo[de]anthracen-10-one as substrate after 1 hr by fluorimetric analysis
pIC50: −log10 of the molar value.
Rule: pIC50 of 7 or more gives satisfied; anything lower gives not satisfied.

>  <Item Smiles>
Cc1ccc(CCNS(=O)(=O)c2cccc(C(=O)O)c2)cc1

>  <Assigned Category>
not satisfied

$$$$
>  <Item Smiles>
O=C(O)c1cccc(S(=O)(=O)N2CCc3cc(Cl)ccc3C2)c1

>  <Assigned Category>
satisfied

$$$$
>  <Item Smiles>
O=C(O)c1cccc(S(=O)(=O)N2CCc3c(cccc3[N+](=O)[O-])C2)c1

>  <Assigned Category>
satisfied

$$$$
>  <Item Smiles>
Nc1cccc(S(=O)(=O)N2CCc3ccccc3C2)c1

>  <Assigned Category>
not satisfied

$$$$
>  <Item Smiles>
O=C(O)c1cncc(S(=O)(=O)N2CCc3ccccc3C2)c1

>  <Assigned Category>
satisfied

$$$$
>  <Item Smiles>
O=C(O)[C@H]1CCCN(S(=O)(=O)c2ccc3ccccc3c2)C1

>  <Assigned Category>
not satisfied

$$$$

* * *

Target: Aldo-keto reductase family 1 member C3 (Homo sapiens)
Assay: Inhibition of AKR1C3 overexpressed in human HCT116 cells assessed as inhibition of PR-104A conversion to hydroxylamine after 2 hrs by LC-MS/MS analysis
pIC50: −log10 of the molar value.
Listed next: entries and their corresponding pIC50.

>  <Item Smiles>
O=C(O)c1cccc(S(=O)(=O)N2CCc3c(I)cccc3C2)c1

>  <Qualifying Sign>
=

>  <pIC50>
7.70

$$$$
>  <Item Smiles>
O=C(O)c1cn(S(=O)(=O)c2ccc(Br)cc2)c2ccccc12

>  <Qualifying Sign>
=

>  <pIC50>
6.39

$$$$
>  <Item Smiles>
O=C(NCCc1ccncc1)c1cccc(S(=O)(=O)N2CCc3ccccc3C2)c1

>  <Qualifying Sign>
=

>  <pIC50>
7.46

$$$$
>  <Item Smiles>
Cc1ccc2c(c1)CCN(S(=O)(=O)c1cccc(C(=O)O)c1)C2

>  <Qualifying Sign>
=

>  <pIC50>
7.28

$$$$
>  <Item Smiles>
O=C(O)c1cccc(S(=O)(=O)NCCc2ccccc2)c1

>  <Qualifying Sign>
<

>  <pIC50>
6.00

$$$$
>  <Item Smiles>
O=C(O)c1cccc(S(=O)(=O)N2CCc3cc(Br)ccc3C2)c1

>  <Qualifying Sign>
=

>  <pIC50>
7.92

$$$$

* * *

Values of IC50 reported for Aldo-keto reductase family 1 member C1 (Homo sapiens) appear below.
Reported Property: IC50

>  <Molecule>
CC1c2ccccc2CCN1S(=O)(=O)c1cccc(C(=O)O)c1 (stereo unspecified)

>  <Reported Property>
IC50

>  <Result Value>
> 30 µM

$$$$
>  <Molecule>
O=C(c1cccc(S(=O)(=O)N2CCc3ccccc3C2)c1)N1CCSCC1

>  <Reported Property>
IC50

>  <Result Value>
> 30 µM

$$$$
>  <Molecule>
CNC(=O)c1cccc(S(=O)(=O)N2CCc3ccccc3C2)c1

>  <Reported Property>
IC50

>  <Result Value>
> 30 µM

$$$$
>  <Molecule>
O=C(O)[C@H]1CCCN(S(=O)(=O)c2ccc3ccccc3c2)C1

>  <Reported Property>
IC50

>  <Result Value>
> 30 µM

$$$$
>  <Molecule>
O=C(O)c1cccc(S(=O)(=O)N2Cc3ccccc3C2)c1

>  <Reported Property>
IC50

>  <Result Value>
3.89 µM

$$$$
>  <Molecule>
O=C(O)c1cccc(S(=O)(=O)N2CCc3ccc(I)cc3C2)c1

>  <Reported Property>
IC50

>  <Result Value>
> 30 µM

$$$$
>  <Molecule>
O=C(O)c1cccc(S(=O)(=O)N2CCc3ccc(-c4nnn[nH]4)cc3C2)c1

>  <Reported Property>
IC50

>  <Result Value>
> 30 µM

$$$$
>  <Molecule>
COc1ccc2c(c1)CN(S(=O)(=O)c1cccc(C(=O)O)c1)CC2

>  <Reported Property>
IC50

>  <Result Value>
> 30 µM

$$$$
>  <Molecule>
O=C(O)c1ccn(S(=O)(=O)c2ccc3ccccc3c2)n1

>  <Reported Property>
IC50

>  <Result Value>
15 µM

$$$$
>  <Molecule>
Cc1ccc(Cl)c(Nc2ccccc2C(=O)O)c1Cl [MECLOFENAMIC ACID]

>  <Reported Property>
IC50

>  <Result Value>
3.16 µM

$$$$
>  <Molecule>
Cc1ccc(CCNS(=O)(=O)c2cccc(C(=O)O)c2)cc1

>  <Reported Property>
IC50

>  <Result Value>
> 30 µM

$$$$

* * *

Target: Aldo-keto reductase family 1 member C3 (Homo sapiens, UniProt P42330)
Sequence (P42330 whole entry): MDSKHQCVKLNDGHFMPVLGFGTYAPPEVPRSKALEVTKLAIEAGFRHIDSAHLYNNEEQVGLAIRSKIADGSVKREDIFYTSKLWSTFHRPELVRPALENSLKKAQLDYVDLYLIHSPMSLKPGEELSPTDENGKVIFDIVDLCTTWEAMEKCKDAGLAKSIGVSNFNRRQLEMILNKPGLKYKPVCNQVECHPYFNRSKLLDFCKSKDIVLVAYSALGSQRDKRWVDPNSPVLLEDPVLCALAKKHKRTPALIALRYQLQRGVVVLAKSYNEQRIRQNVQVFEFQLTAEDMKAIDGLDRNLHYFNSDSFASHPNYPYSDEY
Assay: biochemical
Reported Property: IC50

>  <Molecule>
O=S(=O)(c1cccc(OC(F)(F)F)c1)N1CCc2ccccc2C1

>  <System>
Aldo-keto reductase family 1 member C3 (Homo sapiens, UniProt P42330)

>  <Reported Property>
IC50

>  <Result Value>
> 30 µM

$$$$
>  <Molecule>
O=C(O)C1CCCN(S(=O)(=O)c2ccc(-c3ccc(Cl)cc3)cc2)C1 (racemic)

>  <System>
Aldo-keto reductase family 1 member C3 (Homo sapiens, UniProt P42330)

>  <Reported Property>
IC50

>  <Result Value>
> 30 µM

$$$$
>  <Molecule>
O=[N+]([O-])c1cccc(S(=O)(=O)N2CCc3ccccc3C2)c1

>  <System>
Aldo-keto reductase family 1 member C3 (Homo sapiens, UniProt P42330)

>  <Reported Property>
IC50

>  <Result Value>
> 30 µM

$$$$
